- System: HAP1 MTAP-deleted cell line
- Assay remarks: Viability assay, MTAP-deleted cell line
- Assay type: cell-based
- Measurement setup: Homo sapiens, HAP1, viability IC50, MTAP-deleted cell line; read-out: HAP1 MTAP deleted viability
Recorded IC50, one value per entry.

C[C@@H]1CCC[C@@H]2CN(C(=O)C(=O)Nc3cncc(C(N)=O)c3)CC[C@@H]21 (racemic) [Compound 536]    > 10 µM
Cc1cc(NC(=O)C(=O)N2C[C@H](C)CC[C@H]2c2cccc(S(C)(=O)=O)c2)cnc1C (racemic) [Compound 648]    > 10 µM

Could you now look at the following molecule, please?
// IC50 lookup, key: C[C@H]1CC[C@H](c2cnc3[nH]ncc3c2)N(C(=O)C(=O)Nc2cncc(C(N)=O)c2)C1 (single isomer, unassigned) [Compound 574] > 10 µM

---

- Assay system: PRMT5 (Homo sapiens, UniProt O14744)
- Construct: purchased Viva (custom protein)
- Sequence (O14744 whole entry): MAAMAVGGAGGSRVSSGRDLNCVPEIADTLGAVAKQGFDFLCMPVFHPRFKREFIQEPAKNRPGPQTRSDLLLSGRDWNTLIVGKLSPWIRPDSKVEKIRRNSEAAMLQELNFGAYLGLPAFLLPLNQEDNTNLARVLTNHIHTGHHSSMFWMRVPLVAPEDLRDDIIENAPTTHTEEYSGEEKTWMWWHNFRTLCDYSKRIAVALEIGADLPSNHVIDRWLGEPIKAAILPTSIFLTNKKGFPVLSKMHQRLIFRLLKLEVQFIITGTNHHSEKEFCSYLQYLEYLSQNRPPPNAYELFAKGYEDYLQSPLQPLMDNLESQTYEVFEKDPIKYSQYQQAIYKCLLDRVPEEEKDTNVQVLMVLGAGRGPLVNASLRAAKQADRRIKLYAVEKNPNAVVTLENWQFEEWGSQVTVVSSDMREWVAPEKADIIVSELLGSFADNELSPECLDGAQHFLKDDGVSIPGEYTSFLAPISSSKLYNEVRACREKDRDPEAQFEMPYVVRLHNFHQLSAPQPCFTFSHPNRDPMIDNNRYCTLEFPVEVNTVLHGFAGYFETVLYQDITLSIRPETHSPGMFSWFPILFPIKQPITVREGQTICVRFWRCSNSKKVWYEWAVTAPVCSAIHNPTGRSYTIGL
- Sequence (Q9BQA1 whole entry partner): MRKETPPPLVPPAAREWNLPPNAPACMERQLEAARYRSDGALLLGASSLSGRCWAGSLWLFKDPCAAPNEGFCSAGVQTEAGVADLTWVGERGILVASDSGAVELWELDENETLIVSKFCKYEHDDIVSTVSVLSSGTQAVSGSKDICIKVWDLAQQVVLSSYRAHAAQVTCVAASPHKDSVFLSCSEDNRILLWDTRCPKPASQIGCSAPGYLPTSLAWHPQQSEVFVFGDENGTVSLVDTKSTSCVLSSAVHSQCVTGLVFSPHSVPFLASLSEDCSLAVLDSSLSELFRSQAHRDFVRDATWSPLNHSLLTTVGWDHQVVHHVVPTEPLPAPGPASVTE
- Assay remarks: PRMT5 biochemical IC50 assay with no cofactor
- Measurement setup: PRMT5, no cofactor; read-out: No Cofactor/rel IC50
Readout label: IC50

Cc1cc(NC(=O)C(=O)N2C[C@H](C(F)(F)F)CC[C@H]2c2ccccc2)cnc1N (racemic)    50 to 500 nM
C[C@H]1CC[C@H](c2cccc(Cl)c2)N(C(=O)C(=O)Nc2cnc(N)c(C3CC3)c2)C1 (single isomer, unassigned)    < 50 nM
Cc1cc(NC(=O)C(=O)N2C[C@@H](C)[C@@H](OC(F)(F)F)C[C@@H]2c2ccc(F)cc2)cnc1N (single isomer, unassigned)    < 50 nM
C[C@@H]1CC[C@@H](c2csc3ccccc23)N(C(=O)C(=O)Nc2cncc(C(N)=O)c2)C1 (single isomer, unassigned)    50 to 500 nM
CNc1ccc([C@@H]2CC[C@@H](C)CN2C(=O)C(=O)Nc2cncc(C(N)=O)c2)nc1 (racemic)    50 to 500 nM
CCc1cc(NC(=O)C(=O)N2C[C@@H](C)CC[C@@H]2c2ccc3cn(C)nc3c2)cnc1N    < 50 nM
N#C[C@@H]1CCN(C(=O)C(=O)Nc2cncc(C(N)=O)c2)[C@H](c2ccccc2)C1 (single isomer, unassigned)    > 500 nM
Cc1cc(NC(=O)C(=O)N2C[C@H](C)CC[C@H]2C2CCCN(C)C2)cnc1N (mixture of isomers)    > 500 nM

// IC50 lookup, key: COc1ncc(NC(=O)C(=O)N2CCCCC2c2ccccc2)cc1C(N)=O (single isomer, unassigned) [Compound 202] 50 to 500 nM

// IC50 lookup, key: CC(=O)Oc1ccc([C@@H]2CC[C@@H](C)CN2C(=O)C(=O)Nc2cncc(C(N)=O)c2)cc1 (single isomer, unassigned) > 500 nM

// IC50 lookup, key: CC[C@@H]1CC[C@H](c2ccccc2)N(C(=O)C(=O)Nc2cncc(C(N)=O)c2)C1 (single isomer, unassigned) > 500 nM

// IC50 lookup, key: Cc1cc(NC(=O)C(=O)N2C[C@@H](C)CC[C@@H]2c2ccc3c(cnn3C)c2)cnc1N (single isomer, unassigned) > 500 nM

// IC50 lookup, key: CCc1cc(NC(=O)C(=O)N2C[C@@H](C)CC[C@@H]2c2ccc3sc([C@H](C)N(C)C)nc3c2)cnc1N (single isomer, unassigned) < 50 nM

---

- Assay system: PRMT5 (Homo sapiens, UniProt O14744)
- Construct: purchased Viva (custom protein)
- Assay remarks: PRMT5 biochemical IC50 assay with no cofactor
- Measurement setup: PRMT5, no cofactor; read-out: No Cofactor/rel IC50
pIC50: −log10 of the molar value.
Recorded pIC50, one value per entry.

Example entries and their recorded answers appear below.
Cc1cc(NC(=O)C(=O)N2C[C@@H](C)C(F)(F)C[C@@H]2c2ccc(F)cc2)cnc1N (single isomer, unassigned)    > 7.30
CCc1cc(NC(=O)C(=O)N2CC(C)CCC2c2ccc3sc(C4CCN(C)CC4C)nc3c2)cnc1N (racemic) [Compound 1098]    > 7.30
NC(=O)c1cncc(NC(=O)C(=O)N2C[C@H](OC(F)(F)F)CC[C@H]2c2ccccc2)c1 (racemic)    < 6.30
COc1ncc(NC(=O)C(=O)N2C[C@H](C)CC[C@H]2c2ccc3[nH]ncc3c2)cc1C(N)=O (single isomer, unassigned)    < 6.30

Query the reported pIC50 for PRMT5 (Homo sapiens, UniProt O14744); item: CCc1cc(NC(=O)C(=O)N2C[C@@H](C)CC[C@@H]2c2ccc3c(c2)C(=O)NC3)cnc1N (single isomer, unassigned) > 7.30

Query the reported pIC50 for PRMT5 (Homo sapiens, UniProt O14744); item: CCc1cc(NC(=O)C(=O)N2C[C@@H](C)[C@@H](OC(C)C)C[C@@H]2c2ccc3scnc3c2)cnc1N (racemic) 6.30 to 7.30

Query the reported pIC50 for PRMT5 (Homo sapiens, UniProt O14744); item: CCc1cc(NC(=O)C(=O)N2C[C@H](C)CC[C@H]2c2cccc3[nH]ncc23)cnc1N (racemic) < 6.30

---

- Assay system: PRMT5 (Homo sapiens, UniProt O14744)
- Construct: purchased Viva (custom protein)
- Assay remarks: PRMT5 biochemical IC50 assay with no cofactor
- Measurement setup: PRMT5, no cofactor; read-out: No Cofactor/ rel IC50
pIC50: −log10 of the molar value.
Readout label: pIC50

Example entries and their recorded answers appear below.
CCc1cc(NC(=O)C(=O)N2C[C@@H](C)CC[C@@H]2c2ccc(N3CCOC4(CN(C)C4)C3)cc2)cnc1N (single isomer, unassigned) [Compound 1339]    > 7.30
CCc1cc(NC(=O)C(=O)N2C[C@@H](C)CC[C@@H]2c2cccc([C@H]3CCCN(C)C3)c2)cnc1N (single isomer, unassigned) [Compound 1353]    > 7.30
CCc1cc(NC(=O)C(=O)N2C[C@@H](C)CC[C@@H]2c2ccc3sc(C45CC(N(C)C)(C4)C5)nc3c2)cnc1N [Compound 1404]    > 7.30
C[C@@H]1CC[C@@H](c2ccc3[nH]ncc3c2)N(C(=O)C(=O)Nc2cnc(N)c(C3CC3)c2)C1 (single isomer, unassigned) [Compound 1361]    < 6.30
C[C@@H]1CC[C@@H](c2cccs2)N(C(=O)C(=O)Nc2cncc(C(N)=O)c2)C1 (racemic) [Compound 99]    6.30 to 7.30

// pIC50 lookup, key: CCc1cc(NC(=O)C(=O)N2C[C@@H](C)CC[C@@H]2c2ccc3nn(C4CCN(C)CC4)cc3c2)cnc1N [Compound 1321] > 7.30

---

- Assay system: PRMT5 (Homo sapiens)
- Construct: purchased Viva (custom protein)
- Assay remarks: PRMT5 biochemical IC50 assay with MTA as cofactor
- Measurement setup: PRMT5, MTA as cofactor; read-out: MTA IC50
pIC50: −log10 of the molar value.
Recorded pIC50, one value per entry.

C[C@H]1CC[C@H]([C@H]2CC[C@@H](O)CC2)N(C(=O)C(=O)Nc2cncc(C(N)=O)c2)C1 (single isomer, unassigned) [Compound 382]    < 6.30
Cc1n[nH]c2ccc([C@@H]3CC[C@@H](C)CN3C(=O)C(=O)Nc3cncc(C(N)=O)c3)cc12 (racemic) [Compound 500]    6.30 to 7.30
COc1ncc(NC(=O)C(=O)N2C[C@@H](C)CC[C@@H]2c2ccc3[nH]c(C)nc3c2)cc1C(N)=O (single isomer, unassigned) [Compound 924]    < 6.30

Query the reported pIC50 for PRMT5 (Homo sapiens); item: Cc1cc(NC(=O)C(=O)N2C[C@@H](C)[C@H](OC(C)C)C[C@@H]2c2ccccc2)cnc1N (single isomer, unassigned) [Compound 1327] < 6.30

Query the reported pIC50 for PRMT5 (Homo sapiens); item: C[C@@H]1CC[C@@H](c2cc(F)c(O)c(F)c2)N(C(=O)C(=O)Nc2cncc(C(N)=O)c2)C1 (racemic) [Compound 560] 6.30 to 7.30

Query the reported pIC50 for PRMT5 (Homo sapiens); item: Cc1cc(NC(=O)C(=O)N2C[C@@H](C)CC[C@@H]2c2ccc(N(C)C3CCN(C)CC3)nc2)cnc1N [Compound 1225] > 7.30

---

- Assay system: PRMT5 (Homo sapiens, UniProt O14744)
- Construct: purchased Viva (custom protein)
- Assay remarks: PRMT5 biochemical IC50 assay with no cofactor
- Measurement setup: PRMT5, no cofactor; read-out: No Cofactor/rel IC50
pIC50: −log10 of the molar value.
Recorded pIC50, one value per entry.

// pIC50 lookup, key: Cc1cc(NC(=O)C(=O)N2C[C@H](C)CC[C@H]2c2cc(F)cc(Cl)c2)cnc1N (single isomer, unassigned) > 7.30

// pIC50 lookup, key: Cc1cc(NC(=O)C(=O)N2C[C@H](C)CC[C@H]2c2ccc3cc[nH]c(=O)c3c2)cnc1N (single isomer, unassigned) > 7.30

// pIC50 lookup, key: Cc1cc(NC(=O)C(=O)N2C[C@H](C)CC[C@H]2c2cccc(N3CCN(C)CC3)c2)cnc1N (single isomer, unassigned) [Compound 1121] < 6.30

// pIC50 lookup, key: COc1ncc(NC(=O)C(=O)N2C[C@@H](C)CC[C@H]2c2ccc(C)cn2)cc1C(N)=O (racemic) < 6.30

// pIC50 lookup, key: Cc1cc(NC(=O)C(=O)N2C[C@H](C)CC[C@H]2c2ccc(N)nc2)cnc1N (single isomer, unassigned) > 7.30

Origin of values: patent US11999727B2
